Just for reference, patent US5204471A is where these values come from.

# TESTED ON: HIV protease (Human immunodeficiency virus type 1 group M subtype B, UniProt P04585)
PROPERTY NAME: IC50 (nM)

COMPOUND	TESTED ON	OBSERVED VALUE
CC(C)[C@H](NC(=O)[C@H](Cc1cccc2ccccc12)CS(=O)(=O)C(C)(C)C)C(=O)N[C@@H](Cc1ccccc1)C(O)CN1CCC2CCCCC2C1C(F)(F)F (stereo partly shown)	HIV protease (Human immunodeficiency virus type 1 group M subtype B, UniProt P04585)	50
